# Test system: SNB-19 CNS
# assayRemarks: NCI tumour cell line growth inhibition, 48 h
quantityKind: TGI

Ask: Please look up its TGI: COc1cccc(C2SC(N)=Nc3c2c(C)nn3C(=O)c2ccccc2O)c1 (stereo not given)
Reply: > 10 µM

Ask: # lookup: TGI of NC1(c2cc3ccccc3s2)CCCC1
Reply: > 100 µM

Ask: Requested read-out: TGI. Entry: CC(C)=CCC[C@@H](C)c1c(O)c(O)c(C)c2nccnc12
Reply: > 100 µM

Ask: TGI lookup needed for COc1cccc(Nc2nc(-c3cccs3)nc3cc(OC)c(OC)cc23)c1 , thanks.
Reply: > 100 µM

Ask: TGI lookup needed for O=[N+]([O-])c1ccc(Cl)cc1N/N=C/c1ccnc2ccccc12 , thanks.
Reply: > 100 µM

Ask: Bench note: what TGI did Cc1ccc(/C=C/C(=O)c2cccc3ccccc23)cc1 show?
Reply: 29.6 µM

Ask: Fill in: TGI of Cc1cccc(Cn2c3c(c4cc(O)ccc42)C(=O)c2ccccc2C3=O)c1 is ___
Reply: > 100 µM

Ask: # lookup: TGI of C/C(=N/Nc1ccc([N+](=O)[O-])cc1[N+](=O)[O-])C(CC(C(=O)NCc1ccccc1)/C(C)=N\Nc1ccc([N+](=O)[O-])cc1[N+](=O)[O-])C(=O)NCc1ccccc1 (stereo not given)
Reply: 31 µM

Ask: Need TGI of O=C1NC(=NC(CO)Cc2ccccc2)S/C1=C\c1ccc2ncccc2c1 (stereo not given) , thanks.
Reply: > 25 µM

Ask: Look at this compound and give its reported TGI. O=C(OCc1ccccc1)N1CCNCCN(C(=O)OCc2ccccc2)CCNCC1
Reply: > 100 µM

// data source = PubChem BioAssay (NCI)
